In this section, each of the compounds is paired with its reported viability at 10 µM.
Tested on: A549
Assay: Cytotoxicity against human A549 cells assessed as cell viability at 10 uM measured after 48 hrs by WST-1 assay relative to control
Format: functional
Details: read-out: Activity

{"compound": "COc1cc([N+](=O)[O-])ccc1OCC(O)CN1CCN(CCO)CC1 (centres undefined)", "test_system": "A549", "unit_text": "%", "viability at 10 µM": 93}
{"compound": "OCCN1CCN(CC(O)COc2ccccc2)CC1 (centres undefined)", "test_system": "A549", "unit_text": "%", "viability at 10 µM": 97}
{"compound": "COc1ccccc1OCC(O)CN1CCN(CCO)CC1 (centres undefined)", "test_system": "A549", "unit_text": "%", "viability at 10 µM": 91}
{"compound": "OCCN1CCN(CC(O)COc2cccc3ccccc23)CC1 (centres undefined)", "test_system": "A549", "unit_text": "%", "viability at 10 µM": 98}

Measured values drawn from ChEMBL document CHEMBL4706495 for this set.
